Readings of IC50 for the listed compounds
- target.entity: human DGKζ (Homo sapiens)
- Construct: TVMV protease cleavage site (C); Hexa-His (C); made in house; host or cells: Sf9 insect cells (baculovirus, Bac-to-Bac)
- Sequence (Q13574 with tags, fused parts or gaps isoform Q13574-4): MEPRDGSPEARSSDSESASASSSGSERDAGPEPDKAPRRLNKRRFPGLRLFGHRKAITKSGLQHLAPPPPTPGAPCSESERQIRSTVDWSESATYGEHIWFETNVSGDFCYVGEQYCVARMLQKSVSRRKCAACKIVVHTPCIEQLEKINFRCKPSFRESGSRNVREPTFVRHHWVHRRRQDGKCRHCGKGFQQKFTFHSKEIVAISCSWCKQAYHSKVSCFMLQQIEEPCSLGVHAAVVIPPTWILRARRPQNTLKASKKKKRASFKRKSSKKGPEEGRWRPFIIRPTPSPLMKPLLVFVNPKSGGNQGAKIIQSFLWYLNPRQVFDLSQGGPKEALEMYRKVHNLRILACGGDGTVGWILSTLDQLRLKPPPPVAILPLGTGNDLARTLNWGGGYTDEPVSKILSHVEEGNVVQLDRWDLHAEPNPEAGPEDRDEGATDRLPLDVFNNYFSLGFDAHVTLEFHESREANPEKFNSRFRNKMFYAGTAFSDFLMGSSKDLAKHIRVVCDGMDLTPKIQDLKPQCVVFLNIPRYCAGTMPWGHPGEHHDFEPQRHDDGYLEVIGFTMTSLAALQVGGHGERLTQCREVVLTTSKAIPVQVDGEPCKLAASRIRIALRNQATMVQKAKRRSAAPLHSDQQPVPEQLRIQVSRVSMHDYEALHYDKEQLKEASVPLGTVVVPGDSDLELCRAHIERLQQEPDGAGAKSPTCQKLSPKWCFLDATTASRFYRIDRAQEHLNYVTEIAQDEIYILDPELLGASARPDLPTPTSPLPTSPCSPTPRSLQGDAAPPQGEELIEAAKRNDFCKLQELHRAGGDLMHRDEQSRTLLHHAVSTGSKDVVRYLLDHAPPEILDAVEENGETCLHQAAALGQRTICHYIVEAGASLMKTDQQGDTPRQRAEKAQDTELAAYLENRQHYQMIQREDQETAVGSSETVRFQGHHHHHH
- test.description: DGKζ LIPGLO assay (extruded liposome substrate), in vitro DGK inhibition
- Type: biochemical
- run.parameters: liposome (LIPGLO) assay; read-out: DGKz LIPGLO IC50
quantity.kind: IC50

| compound | observed.measurement |
| --- | --- |
| CC(C)c1ccc(C(C)N2C[C@H](C)N(c3cc(=O)n(C)c4ccc(C#N)nc34)C[C@H]2C)cc1 (single isomer, unassigned) [Example 1234] | 1400 nM |
| C[C@@H]1CN(c2c(F)c(=O)n(C)c3ccc(C#N)nc23)[C@@H](C)CN1C(c1ccc(F)cc1)c1ccc(C(F)(F)F)cc1 (stereo partly drawn) [Example 325] | 2300 nM |
| C[C@@H]1CN(c2cc(=O)n(C)c3ccc(C#N)nc23)[C@@H](C)CN1C(c1ccc(F)cn1)c1ccc(F)cc1F (single isomer, unassigned) [Example 684] | 490 nM |
| CC[C@H]1CN(C(c2ccc(F)cc2)c2cc(C3CC3)on2)[C@H](CC)CN1c1cc(=O)n(C)c2ccc(C#N)nc12 (single isomer, unassigned) [Example 1074] | 47 nM |
| CC(=O)N1CC(c2noc(C(c3ccc(F)cc3)N3C[C@H](C)N(c4cc(=O)n(C)c5ccc(C#N)nc45)C[C@H]3C)n2)C1 (single isomer, unassigned) [Example 1297] | 92 nM |
| C[C@@H]1CN(c2cc(=O)n(C)c3ccc(C#N)nc23)[C@@H](C)CN1Cc1cccc(N(C)C)c1 [Example 573] | 640 nM |
| CC[C@H]1CN(C(c2ccc(Cl)cc2)c2ccc(F)cn2)[C@H](C)CN1c1cc(=O)n(C)c2ccc(C#N)nc12 (single isomer, unassigned) [Example 1130] | 430 nM |
| C[C@@H]1CN(c2cc(=O)n(C)c3ccc(C#N)nc23)[C@@H](C)CN1Cc1c(Cl)cccc1Cl [Example 263] | 1700 nM |
| C[C@@H]1CN(c2cc(=O)n(C)c3ccc(C#N)nc23)[C@@H](C)CN1Cc1cc(F)c(F)c(F)c1 [Example 1235] | 630 nM |
| CC[C@H]1CN(C(c2ccc(C)cc2)c2ccc(C)cc2)[C@H](C)CN1c1cc(=O)n(C)c2ccc(C#N)nc12 [Example 1119] | 430 nM |
| CC(c1ccc(-n2cncn2)cc1)N1C[C@H](C)N(c2cc(=O)n(C)c3ccc(C#N)nc23)C[C@H]1C (single isomer, unassigned) [Example 1239] | 23000 nM |
| C[C@@H]1CN(c2cc(=O)n(C)c3ccc(C#N)nc23)[C@@H](C)CN1C(c1ccc(F)cc1)c1ccccc1N1CCOCC1 (single isomer, unassigned) [Example 665] | > 250000 nM |

Reference source for all entries: patent US10669272B2
